Test system: SF-268 CNS
METHOD SUMMARY: NCI-60 one-dose screen, 48 h
SETUP CONDITIONS: 10 µM unless noted
This is part of a sample that, as a whole, favours compounds with a hit. Of some 83,000 tested, about 20% had one in any assay. Activity calls are given as the source filed them. The calls were made as follows: active = growth percent below 10; inactive = the rest.
Outcomes: active, inactive

# MOLECULE, EXPERIMENTAL TARGET, GROUP LABEL
data = [
    ("CC/C(=C(\\c1ccc(O)cc1)c1ccc(OCCN(C)CCN(C)C(=O)CCC(=O)c2c(C)[nH]c(/C=C3\\N=C(c4ccc[nH]4)C=C3OC)c2C)cc1)c1ccccc1", "SF-268 CNS", "inactive"),
    ("N#CC1=C(N)OC2=C(C(=O)CCC2)C1c1ccco1 (stereo not given)", "SF-268 CNS", "inactive"),
    ("CCCC1OC(c2ccc(C(C)C)cc2)OCC1CC (stereo not given)", "SF-268 CNS", "inactive"),
    ("COc1ccc(/C=c2\\sc3n(c2=O)C2C(NN=3)N(C)C(=O)N2C)cc1 (stereo not given)", "SF-268 CNS", "inactive"),
    ("C=CCc1cc(Cl)cc2c(OC(C)=O)c(C(C)=O)c(-c3ccccc3)nc12", "SF-268 CNS", "inactive"),
    ("COC(=O)C(CC(=O)c1ccc(-c2ccccc2)cc1)c1ccccc1 (stereo not given)", "SF-268 CNS", "inactive"),
    ("O=C(N/N=C/c1c(Cl)cccc1Cl)c1ccccc1Nc1ccnc(C(F)(F)F)c1", "SF-268 CNS", "inactive"),
    ("CCCCCC/C=C\\CCCCCCCCOc1ccc(CCOP(=O)(O)OCC[N+](C)(C)C)cc1", "SF-268 CNS", "inactive"),
    ("COc1ccc(C2=CC(c3ccc(Oc4ccnc5cc(Cl)ccc45)c(OC)c3)c3c(nc(OC)[nH]c3=O)N2)cc1 (stereo not given)", "SF-268 CNS", "inactive"),
    ("COc1cc(Cn2c(SCC(=O)Nc3ccc(Cl)cc3)nc3ccccc3c2=O)cc(OC)c1OC", "SF-268 CNS", "inactive"),
    ("Nc1nn2cc(-c3ccc(Cl)s3)nc2c2ccccc12", "SF-268 CNS", "inactive"),
    ("O=[N+]([O-])c1c(S(=O)(=O)O)cc2cc(S(=O)(=O)O)ccc2c1[N+](=O)[O-]", "SF-268 CNS", "inactive"),
    ("COc1ccc(/C=C/C(=O)OCC(=O)NNC(=O)c2ccccc2)cc1OC", "SF-268 CNS", "inactive"),
    ("COc1cc(CCn2nnc3c(Nc4ccc(N5CCOCC5)cc4)ncnc32)cc(OC)c1", "SF-268 CNS", "inactive"),
    ("O=C(/C=C/c1ccccc1)n1c(-c2ccc(Cl)cc2)nc2ccccc21", "SF-268 CNS", "active"),
]

====

System: A549/ATCC NSCLC
METHOD SUMMARY: NCI-60 one-dose screen, 48 h (100 = growth as untreated, 0 = no growth, -100 = all killed)
SETUP CONDITIONS: 10 µM unless noted
About 83,000 compounds went through this panel and 20% of them were active in at least one assay; those are over-represented in the sample as a whole.

# COMPOUND, EXPERIMENTAL TARGET, growth, %
records = [
    ("O=C(Nc1ccccc1)OCC1OCOC(COC(=O)Nc2ccccc2)C1OC(=O)Nc1ccccc1 (stereo not drawn)", "A549/ATCC NSCLC", 47.9),
    ("COc1ccc(/C=C/c2cc(N3CCOCC3)c3cc(F)c(F)cc3n2)cc1OC", "A549/ATCC NSCLC", 44.6),
    ("COc1cc(C(=O)N2CCN(C(=O)c3ccco3)CC2)c(N)cc1OCc1ccccc1", "A549/ATCC NSCLC", 93.3),
    ("CCn1cc(C(=O)O)c(=O)c2cc(F)c(N3CCN(S(=O)(=O)c4ccc(Cl)cc4Cl)CC3)cc21", "A549/ATCC NSCLC", 2.05),
    ("CCN(CC)CCSc1c2ccc(Cl)cc2nc2ccc(OC)cc12", "A549/ATCC NSCLC", 74),
    ("COc1cc(-c2nc(-c3nc4ccccc4[nH]3)cc3c2[nH]c2ccccc23)cc(OC)c1OC", "A549/ATCC NSCLC", 22.5),
    ("Cn1c(C(N)=O)cc2c1-c1nc(NC3CCCCC3)ncc1CCC2", "A549/ATCC NSCLC", 92.2),
    ("COc1cc(-c2csc(NC(=O)Nc3ccc(Cl)cc3Cl)n2)cc(OC)c1OC", "A549/ATCC NSCLC", 25.5),
]
